Reported Kd values for a set of sequences
- TEST TARGET: cynomolgus serum albumin (CSA) (Macaca fascicularis, UniProt A2V9Z4)
- Construct: CSA (purified in-house from cynomolgus serum); from tissue; host or cells: cynomolgus serum
- Sequence (A2V9Z4 25-608): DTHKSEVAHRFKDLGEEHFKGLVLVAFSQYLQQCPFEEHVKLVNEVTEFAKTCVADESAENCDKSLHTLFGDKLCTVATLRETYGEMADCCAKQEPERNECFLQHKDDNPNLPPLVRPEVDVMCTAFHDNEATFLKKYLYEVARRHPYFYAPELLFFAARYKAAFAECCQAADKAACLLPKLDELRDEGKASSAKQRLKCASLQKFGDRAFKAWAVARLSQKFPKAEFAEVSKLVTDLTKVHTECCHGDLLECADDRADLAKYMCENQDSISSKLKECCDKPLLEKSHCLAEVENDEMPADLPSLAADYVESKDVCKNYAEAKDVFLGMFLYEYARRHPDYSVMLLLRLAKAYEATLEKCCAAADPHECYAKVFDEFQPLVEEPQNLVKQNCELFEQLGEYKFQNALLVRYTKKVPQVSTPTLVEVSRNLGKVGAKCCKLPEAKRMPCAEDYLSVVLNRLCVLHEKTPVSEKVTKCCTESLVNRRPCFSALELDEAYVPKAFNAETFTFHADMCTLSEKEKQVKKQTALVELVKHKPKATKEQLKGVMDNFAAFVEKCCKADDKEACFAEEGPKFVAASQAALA
- TEST SUMMARY: Biacore analysis of binding to CSA
- TEST CONDITIONS: CSA immobilized, Biacore2000; relative KD only
Where no end group is shown, it is not given here.
Kindly provide the numeric value in pM only, without the unit symbol.

residue_string="GSSLAEAKEAANAELDSYGVSDFYKKLIDKAKTVEGVEALKDAILAALP [PEP12380]" observation_type=Kd unit_tag=pM obs_value=11

For this sequence ( GSSLAEAKEAANAELDSYGVSDFYKRLIDKAKTVEGVEALKDAILAALP [PEP07843, reference compound] ), measured Kd is 9.8
